assay: reduction of polyQ htt aggregates in cells – imaging, exon1htt(103Q)mCFP cells, high-content imaging, primary screen (AID 483); settings: exon1htt(103Q)mCFP cell line, aggregate imaging, at 2 µM; measured here: cell count, toxicity;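 further: compound exposure lasted 3 days before fixation; percent of the per-plate median nuclei count of sample wells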
value_type: nuclei count (%)
Express your answer in %, writing the number without its unit.

Examples with their reported nuclei count follow.
>  <compound>
O=C(Nc1ccc2oc(=O)ccc2c1)c1cccnc1

>  <result_units>
%

>  <nuclei count>
90.8

$$$$
>  <compound>
COc1ccc(NC(=O)N2CCC(O)(c3cccnc3)CC2)c(OC)c1

>  <result_units>
%

>  <nuclei count>
88.6

$$$$
>  <compound>
CN(C=O)CP(=O)(O)CCN1CCCC1=O

>  <result_units>
%

>  <nuclei count>
90.6

$$$$
>  <compound>
COc1ccc(CCNc2oc(-c3ccccc3OC)nc2C#N)cc1

>  <result_units>
%

>  <nuclei count>
86.1

$$$$
>  <compound>
Cc1cc(OCC(O)CN2CCN(CCO)CC2)ccc1C(C)C (centres undefined)

>  <result_units>
%

>  <nuclei count>
94.9

$$$$

Can you look up the measured nuclei count of CC1(C)CC2CC(C)(CN2S(=O)(=O)c2ccc(N)cc2)C1 (centres undefined) for me?
79.8

Can you look up the measured nuclei count of Cc1sc2nc(SCC(=O)Nc3c(C)n(C)n(-c4ccccc4)c3=O)n(C)c(=O)c2c1C for me?
74.8

Can you look up the measured nuclei count of CCOC(=O)c1[nH]c(C)c(C(=O)N(C)C)c1C for me?
111

Can you look up the measured nuclei count of CCCC(=O)Nc1ccc(NC(=O)c2ccccc2OC)cn1 for me?
90.7

----------
biological target: Voltage-gated potassium channel subunit beta-2 (Rattus norvegicus); test: inhibitors of rat Kvbeta2 reductase activity – biochemical, NADPH fluorescence, primary screen (AID 622); settings: recombinant KvBeta, 4-cyanobenzaldehyde reduction, at 10 µM, stronger effect = higher value;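 further: slope of raw intensity against log time taken from 70 to 1610 s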
Below: a set of entries, each annotated with reported fluorescence slope.
Simply state the number, no unit and no words.

Examples with their reported fluorescence slope follow.
>  <compound>
Cc1ccc(S(=O)(=O)NCCNC(=O)C2CCCNC2=O)cc1 (stereo not drawn)

>  <assayed_system>
Voltage-gated potassium channel subunit beta-2 (Rattus norvegicus)

>  <fluorescence slope>
-0.584

$$$$
>  <compound>
CCOC(=O)NC(=O)CSc1nnnn1-c1ccc(Cl)cc1

>  <assayed_system>
Voltage-gated potassium channel subunit beta-2 (Rattus norvegicus)

>  <fluorescence slope>
-0.297

$$$$
>  <compound>
COc1ccc(S(=O)(=O)N(C)CC(=O)N2CCCCC2)cc1Cl

>  <assayed_system>
Voltage-gated potassium channel subunit beta-2 (Rattus norvegicus)

>  <fluorescence slope>
-0.492

$$$$
>  <compound>
O=C(Cc1c(F)cccc1Cl)Nc1ccncc1

>  <assayed_system>
Voltage-gated potassium channel subunit beta-2 (Rattus norvegicus)

>  <fluorescence slope>
-0.334

$$$$
>  <compound>
COC1CCCCC1NS(=O)(=O)c1ccccc1 (stereo not drawn)

>  <assayed_system>
Voltage-gated potassium channel subunit beta-2 (Rattus norvegicus)

>  <fluorescence slope>
-0.312

$$$$
>  <compound>
Cc1nnc(SC(=O)N2c3ccccc3Sc3ccccc32)s1

>  <assayed_system>
Voltage-gated potassium channel subunit beta-2 (Rattus norvegicus)

>  <fluorescence slope>
-0.31

$$$$

Lab note: next compound to report on.
Can you look up the measured fluorescence slope of c1ccc2c(c1)C(=Nn1cnnc1)c1ccccc1-2 for me?
-0.448

----------
target: Voltage-gated potassium channel subunit beta-2 (Rattus norvegicus) (UniProt P62483); experiment: inhibitors of rat Kvbeta2 reductase activity – biochemical, NADPH fluorescence, primary screen (AID 622); conditions: recombinant KvBeta, 4-cyanobenzaldehyde reduction, at 10 µM;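 further: slope of raw intensity against log time taken from 70 to 1610 s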
Sequence (P62483 whole entry, looked up): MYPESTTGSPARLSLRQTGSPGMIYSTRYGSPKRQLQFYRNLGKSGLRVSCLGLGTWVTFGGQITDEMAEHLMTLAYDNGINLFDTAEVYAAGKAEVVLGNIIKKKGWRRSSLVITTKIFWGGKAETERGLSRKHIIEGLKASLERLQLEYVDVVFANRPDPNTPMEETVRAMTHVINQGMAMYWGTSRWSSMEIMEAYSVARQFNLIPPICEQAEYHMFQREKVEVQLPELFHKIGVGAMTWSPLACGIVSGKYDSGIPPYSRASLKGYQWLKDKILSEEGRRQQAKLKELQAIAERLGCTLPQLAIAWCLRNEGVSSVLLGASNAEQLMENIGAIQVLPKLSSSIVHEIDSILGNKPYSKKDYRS
The source made the active and inactive calls.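 The calls were made as follows: active = fluorescence slope higher than the sample average by over 3 SD (cut at about -0.22 in these data, passing the limit was not always enough); inactive = the rest.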
Response enum: Y for active, N for inactive

>  <compound>
Cc1c(C)c2ccc(OC3CCCCC3=O)cc2oc1=O (centres undefined)

>  <assayed_system>
Voltage-gated potassium channel subunit beta-2 (Rattus norvegicus) (UniProt P62483)

>  <discrete_label>
N

$$$$
>  <compound>
CCC(=O)c1ccc(OCC(O)CN2CCN(S(=O)(=O)N3CCCCC3)CC2)cc1 (centres undefined)

>  <assayed_system>
Voltage-gated potassium channel subunit beta-2 (Rattus norvegicus) (UniProt P62483)

>  <discrete_label>
N

$$$$

Outcome logged for O=C(CSc1nnc(-c2cccs2)o1)NCC1CN(Cc2ccccc2)CCO1 (centres undefined) in this assay:
N

Outcome logged for COc1ccc(C(=O)c2coc3ccc(O)c(CN4CCCCC4)c23)cc1 in this assay:
N

Outcome logged for O=C(NCCC1=CCCCC1)C1CCN(S(=O)(=O)c2cccc3nsnc23)CC1 in this assay:
N

Outcome logged for COc1ccc(OC)c(S(=O)(=O)NCCO)c1 in this assay:
N

----------
experiment: inhibitors of TNFa-induced NFkB p65 translocation, primary screen, imaging, HUVEC, MLSMR starter and 10KST1 sets (AID 438); conditions: HUVEC TNFa-induced p65 nuclear translocation; at 2 µM, stronger effect = higher value, 0% TNFa-plus-vehicle, 100% no-TNFa wells;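 further: compound added about 3h40 before a 20 min TNFalpha stimulation; signal is the nuclear over cytoplasmic p65 intensity ratio per well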
Below: a set of entries, each annotated with reported inhibition.
Express your answer in %, writing the number without its unit.

>  <compound>
CC1=C(C(N)=O)C(c2ccccn2)n2nc(-c3ccccc3Cl)nc2N1 (centres undefined)

>  <result_units>
%

>  <inhibition>
-5.4

$$$$
>  <compound>
CCOC(=O)c1c(-c2ccc(C)o2)csc1NC(=O)CN1CCN(CC)CC1

>  <result_units>
%

>  <inhibition>
-0.4

$$$$

Can you look up the measured inhibition of COc1ccc(C)cc1S(=O)(=O)N(C)CC(=O)Nc1ccc2c(c1)OCO2 for me?
-15.7

Can you look up the measured inhibition of Cc1ccc2c(c1)CCCN2C(=O)C1CCCO1 (centres undefined) for me?
-6.4

----------
biological target: Muscarinic acetylcholine receptor M4 (Homo sapiens) (UniProt P08173); experiment: M4-linked GIRK flux change, two-sided – cell-based, HEK293 M4/GIRK, thallium flux, BTC-AM, M4 allosteric agonist project, primary screen (AID 625); settings: at 10 µM, actives lie on both sides;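 further: thallium influx through GIRK channels coupled to M4 in HEK293 cells with BTC-AM dye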
Sequence (P08173 whole entry, looked up): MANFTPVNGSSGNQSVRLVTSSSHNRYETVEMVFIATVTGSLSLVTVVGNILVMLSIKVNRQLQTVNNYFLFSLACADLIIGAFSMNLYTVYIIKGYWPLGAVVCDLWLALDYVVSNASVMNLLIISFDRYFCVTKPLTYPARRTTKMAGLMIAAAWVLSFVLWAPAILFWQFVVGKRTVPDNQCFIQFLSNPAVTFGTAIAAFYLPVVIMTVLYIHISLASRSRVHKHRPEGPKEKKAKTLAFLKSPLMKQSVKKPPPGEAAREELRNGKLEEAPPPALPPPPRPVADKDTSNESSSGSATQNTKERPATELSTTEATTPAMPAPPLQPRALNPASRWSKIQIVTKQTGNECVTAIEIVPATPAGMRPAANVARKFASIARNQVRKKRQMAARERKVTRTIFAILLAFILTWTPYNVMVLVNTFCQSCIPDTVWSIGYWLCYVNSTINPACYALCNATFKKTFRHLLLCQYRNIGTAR
value_type: fluorescence slope
Simply state the number, no unit and no words.

>  <compound>
Cc1cc2nc3c(nc2cc1C)C1(C(=O)O)CCC3(C)C1(C)C (centres undefined)

>  <assayed_system>
Muscarinic acetylcholine receptor M4 (Homo sapiens) (UniProt P08173)

>  <fluorescence slope>
0.00318

$$$$
>  <compound>
CCn1c(C(=O)OC)cc2c1ccn2-c1ccc(F)cc1

>  <assayed_system>
Muscarinic acetylcholine receptor M4 (Homo sapiens) (UniProt P08173)

>  <fluorescence slope>
0.00586

$$$$
>  <compound>
CCOC(=O)C1=C(CC)Nc2ccccc2N=C1NC(=O)Cn1cnc2ccccc2c1=O

>  <assayed_system>
Muscarinic acetylcholine receptor M4 (Homo sapiens) (UniProt P08173)

>  <fluorescence slope>
0.00608

$$$$

Lab note: next compound to report on.
Can you look up the measured fluorescence slope of Cc1nc2c(=O)oc3ccccc3c2n1-c1ccccc1 for me?
0.0052

----------
assay: TLR3 IRF3 reporter activation blockers – cell-based, poly I:C stimulus, luciferase, 10K MLSCN set, primary screen (AID 602277); conditions: HEK293-TLR3 RL24 IRF3 luciferase reporter, at 10 µM, stronger effect = higher value
Activity calls are given as the source filed them.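 How the source made its calls: active means inhibition of the reporter signal at or above 50%; inactive means inhibition below 50%.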
value_type: inhibition

Examples with their reported inhibition follow.
>  <compound>
Cc1ccc(C)c(-c2nc3cc(N)ccc3o2)c1

>  <result>
1.69% (inactive)

$$$$
>  <compound>
Cn1c(CN2CCOCC2)nnc1SCC(=O)NCCc1ccccc1

>  <result>
-42.9% (inactive)

$$$$
>  <compound>
COC(=O)CCN(C(=O)c1ccc2c(c1)OCO2)c1ccccn1

>  <result>
18% (inactive)

$$$$
>  <compound>
Cc1nc2ccc(NC(=O)N3CCC(c4ccccc4)C3)cc2nc1C (configuration not stated)

>  <result>
-40.6% (inactive)

$$$$
>  <compound>
CCOCCCNC(=O)c1c[nH]c2ccc(S(=O)(=O)Nc3cccc(OC)c3)cc2c1=O

>  <result>
0.559% (inactive)

$$$$
>  <compound>
CCOC(=O)C1CCN(C(=O)C2CCN(S(=O)(=O)c3cc(Cl)ccc3Cl)CC2)CC1

>  <result>
9.65% (inactive)

$$$$

Can you look up the measured inhibition of COc1cccc(Nc2nc(=O)[nH]nc2C)c1 for me?
22.7% (inactive)

----------
Below: a set of entries, each annotated with reported inhibition.
experiment: endothelial E-selectin expression blockers – imaging, HUVEC, immunofluorescence, MLSMR starter and 10KST1 sets, primary screen (AID 487); conditions: HUVEC TNFalpha-induced E-selectin immunofluorescence imaging, at 2 µM; stronger effect = higher value;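 further: signal is fraction of cell area covered by stained E-selectin grains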
Express your answer in %, writing the number without its unit.

Examples with their reported inhibition follow.
>  <compound>
COc1ccc(C(NC(=O)c2ccco2)c2ccc(OC)c(OC)c2)cc1 (stereo unspecified)

>  <inhibition / %>
-24.8

$$$$
>  <compound>
COc1ccc(CCN2C(=O)CC(N3CCOCC3)C2=O)cc1 (stereo unspecified)

>  <inhibition / %>
-57

$$$$
>  <compound>
Cc1cc(C(=O)CSc2nnc(-c3ccccc3)n2C)c(C)n1C

>  <inhibition / %>
-5.3

$$$$
>  <compound>
Cc1cc(C(=O)CSCCCn2c(=O)[nH]c3ccccc32)c(C)n1C

>  <inhibition / %>
-68.3

$$$$
>  <compound>
COc1ccc2c(c1)CCc1c(C(=O)NCc3cccnc3)noc1-2

>  <inhibition / %>
-85.6

$$$$

Can you look up the measured inhibition of CC1(C)OC(=O)N(c2cccnc2)C1(C)O (stereo unspecified) for me?
41.8

Can you look up the measured inhibition of C=C(c1cccc2ccccc12)P(=O)(O)O for me?
18.6

Can you look up the measured inhibition of Cc1cc(C)c(C#N)c(SCC(=O)Nc2ccc(S(=O)(=O)Nc3onc(C)c3C)cc2)n1 for me?
-59.1
